From: patent EP4656642A1

- tested_target: UniProtKB P03372
- Sequence (P03372 whole entry): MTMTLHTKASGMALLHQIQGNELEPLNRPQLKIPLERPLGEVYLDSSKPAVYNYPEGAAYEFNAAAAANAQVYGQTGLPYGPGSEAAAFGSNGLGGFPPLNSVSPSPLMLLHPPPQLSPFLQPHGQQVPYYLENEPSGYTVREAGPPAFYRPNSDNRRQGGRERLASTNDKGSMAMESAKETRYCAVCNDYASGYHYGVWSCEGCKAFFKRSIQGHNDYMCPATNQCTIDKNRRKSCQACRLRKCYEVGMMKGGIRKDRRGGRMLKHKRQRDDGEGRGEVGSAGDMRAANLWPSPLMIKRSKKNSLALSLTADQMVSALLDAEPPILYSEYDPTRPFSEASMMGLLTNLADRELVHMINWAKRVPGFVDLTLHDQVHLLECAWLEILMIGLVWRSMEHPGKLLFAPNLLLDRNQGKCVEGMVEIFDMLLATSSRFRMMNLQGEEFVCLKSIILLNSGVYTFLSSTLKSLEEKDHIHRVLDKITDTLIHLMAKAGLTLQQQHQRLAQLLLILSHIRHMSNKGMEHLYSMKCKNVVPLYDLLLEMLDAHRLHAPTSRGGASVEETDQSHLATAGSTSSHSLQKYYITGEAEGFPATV
- assay_remarks: Degradation of ERα in MCF-7 cells (immunoblotting, 4 h)
- Assay type: cell-based
- run_conditions: 1nM compound
- Method: MCF-7 cells were inoculated into 6-well plates at a density of 3×10^5 cells/well and cultured at 37°C, 5% CO2 for 24h. […] Protein immunoblotting: The total protein concentration in the collected cell lysate supernatant was determined by BCA Protein Concentration Assay Kit (Enhanced) (P0009, Beyotime). […] Protein profiles were analyzed by Image Studio Lite analysis software for grayscale values. […]
result_type: Degradation rate (%) of ERα in MCF-7 cells

Some entries whose results are on file:
compound	result
O=C1CCC(N2Cc3cc4c(cc3C2=O)OC2(CC4)CCN(C(=O)CN3CCC4(CC3)CCN(c3ccc([C@@H]5c6ccc(O)cc6CC[C@@H]5c5ccccc5)cc3)CC4)CC2)C(=O)N1 (stereo partly drawn) [A67]	27
O=C1CCC(N2C(=O)c3ccc4c(c3C2=O)OCC42CCN(C(=O)CN3CCC4(CC3)CCN(c3ccc([C@@H]5c6ccc(O)cc6CC[C@@H]5c5ccccc5)cc3)CC4)CC2)C(=O)N1 (stereo partly drawn) [A68]	11
CN(C[C@H]1CC[C@H](C(=O)N2CCC3(CC2)COc2c3ccc3c2CN(C2CCC(=O)NC2=O)C3=O)CC1)[C@H]1CCN(c2ccc([C@@H]3c4ccc(O)cc4CC[C@@H]3c3ccccc3)cc2)C[C@H]1F (stereo partly drawn) [D13]	42
O=C1CCC(N2Cc3c(ccc4c3OCC43CCN(CC4CCC(N5CCN(c6ccc([C@@H]7c8ccc(O)cc8CC[C@@H]7c7ccccc7)cc6)CC5)CC4)CC3)C2=O)C(=O)N1 (stereo partly drawn) [H15]	29

A = CC(C)(C(=O)N1CCC2(CC1)COc1c2ccc2c1CN(C1CCC(=O)NC1=O)C2=O)N1CCC2(CCN(c3ccc([C@@H]4c5ccc(O)cc5CC[C@@H]4c4ccccc4)cc3)CC2)C1 (stereo partly drawn) [A91]
B = O=C1CCC(N2Cc3c(ccc4c3OCC43CCN(C(=O)C4CCC5(CC4)CN(c4ccc([C@@H]6c7ccc(O)cc7CC[C@@H]6c6ccccc6)cc4)C5)CC3)C2=O)C(=O)N1 (stereo partly drawn) [A83]
C = O=C1CCC(N2Cc3cc4c(cc3C2=O)OC2(CC4)CN(C(=O)C3CCN(c4ccc([C@@H]5c6ccc(O)cc6CC[C@@H]5c5ccccc5)cc4)CC3)C2)C(=O)N1 (stereo partly drawn) [A51]
D = O=C1CCC(N2C(=O)c3cc4c(cc3C2=O)OC2(CC4)CCN(CC3CCC4(CC3)CCN(c3ccc([C@@H]5c6ccc(O)cc6CC[C@@H]5c5ccccc5)cc3)CC4)CC2)C(=O)N1 (stereo partly drawn) [A43]
E = O=C1CCC(N2Cc3ccc4c(c3C2=O)OCC2(CCN(C3CCC5(CC3)CN(c3ccc([C@@H]6c7ccc(O)cc7CC[C@@H]6c6ccccc6)cc3)C5)CC2)C4)C(=O)N1 (stereo partly drawn) [L6]
Prompt: Sort the 5 compounds by Degradation rate (%) of ERα in MCF-7 cells; largest first, smallest last. Please list the labels according to the requested order.
Completion: B, E, C, A, D

* * *

- tested_target: UniProt P03372
- assay_remarks: Degradation of ERα in MCF-7 cells (immunoblotting, 4 h)
- Format: cell-based
- run_conditions: 1nM compound
result_type: Degradation rate (%) of ERα in MCF-7 cells

compound	result
O=C1CCC(N2Cc3c(ccc4c3OCC43CCN(C(=O)C4CC5(CCN(c6ccc([C@@H]7c8ccc(O)cc8CC[C@@H]7c7ccccc7)cc6)CC5)C4)CC3)C2=O)C(=O)N1 (some centres unmarked)	5

P = COC(=O)[C@@H]1C[C@H](N2CCC3(CC2)COc2c3ccc3c2CN(C2CCC(=O)NC2=O)C3=O)CCN1C1CCN(c2ccc([C@@H]3c4ccc(O)cc4CC[C@@H]3c3ccccc3)cc2)CC1 (some centres unmarked)
Q = CC(C(=O)N1CCC2(CC1)COc1c2ccc2c1CN(C1CCC(=O)NC1=O)C2=O)N1CCC2(CCN(c3ccc([C@@H]4c5ccc(O)cc5CC[C@@H]4c4ccccc4)cc3)CC2)C1 (some centres unmarked)
Prompt: Pick one: P or Q . Which has the bigger Degradation rate (%) of ERα in MCF-7 cells number? Label of pick, please.
Completion: Q
(Q: 57%, P: 35%)

A = O=C1CCC(N2Cc3c(ccc4c3OCC43CCN(C4CCN(C5CC6(CCN(c7ccc([C@@H]8c9ccc(O)cc9CC[C@@H]8c8ccccc8)cc7)CC6)C5)[C@@H](C(=O)N5CC(F)(F)C5)C4)CC3)C2=O)C(=O)N1 (some centres unmarked)
B = O=C1CCC(N2Cc3cc4c(cc3C2=O)OC2(CC4)CN(CC3CCN(C(=O)C4CCN(c5ccc([C@@H]6c7ccc(O)cc7CC[C@@H]6c6ccccc6)cc5)CC4)CC3)C2)C(=O)N1 (some centres unmarked)
Prompt: I'm curious, which of these has a smaller Degradation rate (%) of ERα in MCF-7 cells number: A or B ? Mark your selection by writing its label.
Completion: B
